Where these numbers come from: patent US20090325959A1

- protocolDetails: Compound plasma concentrations in unsensitized mice at 15 min post administration
- Format: in vivo
- recordedConditions: mouse, 15 μmol/kg; mean compound plasma concentration in mice at 15 minutes post oral administration; read-out: Mouse Oral PK
Use 1000 nM as the dividing line for concentration at 15 min, with the line itself on the TRUE side and lower values as FALSE.

Item "c1ccc(CN2CC[C@@H](Nc3cccc4cnccc34)C2)cc1" with concentration at 15 min of 1000 nM or above?
FALSE

Reported concentration at 15 min at or above 1000 nM? "NC(=O)Cn1ccc2cc(CN3CCC[C@H](Nc4ccc5[nH]ncc5c4)C3)ccc21"
FALSE

Kindly determine if concentration at 15 min recorded for "c1cc(N[C@@H]2CCN(Cc3ccc4cc[nH]c4c3)C2)c2ccncc2c1" is above or exactly 1000 nM.
FALSE

Confirm if concentration at 15 min reported for the molecule "c1cc2cc(CN3CCC[C@H](Nc4ccc5[nH]ncc5c4)C3)ccc2[nH]1" is 1000 nM or above.
TRUE

Quick check: does "CS(=O)(=O)Nc1cccc(CN2CCC[C@@H](Nc3ccc4[nH]ncc4c3)C2)c1" have concentration at 15 min greater than or equal to 1000 nM?
FALSE

Hello, I need to know if "NS(=O)(=O)c1cccc(CN2CCC[C@@H](Nc3ccc4[nH]ncc4c3)C2)c1" has measured concentration at 15 min not below 1000 nM. Thanks!
TRUE

Has "c1cc(CN2CCC[C@H](Nc3ccc4[nH]ncc4c3)C2)cc(C2CC2)c1" a recorded concentration at 15 min greater than or equal to 1000 nM?
TRUE

For this molecule, is measured concentration at 15 min 1000 nM or higher? "Cc1ccc(CN2CCC[C@@H](Nc3ccc4[nH]ncc4c3)C2)c(C)c1"
FALSE

Is the recorded value of concentration at 15 min equal to or greater than 1000 nM for this molecule? "Cc1ccc(S(=O)(=O)Nc2cc(CN3CCC[C@@H](Nc4ccc5[nH]ncc5c4)C3)ccc2C)cc1"
FALSE

Does "C#Cc1ccc(CN2CCC[C@@H](Nc3ccc4[nH]ncc4c3)C2)cc1" have a reported concentration at 15 min of at least 1000 nM?
TRUE

Answer whether concentration at 15 min of "C#Cc1ccc(CN2CC[C@@H](Nc3cccc4cnccc34)C2)cc1" is greater than or equal to 1000 nM.
TRUE

concentration at 15 min >= 1000 nM for "Brc1ccc(CN2CCC[C@@H](Nc3ccc4[nH]ncc4c3)C2)cc1" ?
TRUE

###

pKi overview
- targetOrTestSystem: Akt3 human enzyme (Homo sapiens)
- Construct: purchased Upstate Chemicon 14-502
- Sequence (Q9Y243 whole entry): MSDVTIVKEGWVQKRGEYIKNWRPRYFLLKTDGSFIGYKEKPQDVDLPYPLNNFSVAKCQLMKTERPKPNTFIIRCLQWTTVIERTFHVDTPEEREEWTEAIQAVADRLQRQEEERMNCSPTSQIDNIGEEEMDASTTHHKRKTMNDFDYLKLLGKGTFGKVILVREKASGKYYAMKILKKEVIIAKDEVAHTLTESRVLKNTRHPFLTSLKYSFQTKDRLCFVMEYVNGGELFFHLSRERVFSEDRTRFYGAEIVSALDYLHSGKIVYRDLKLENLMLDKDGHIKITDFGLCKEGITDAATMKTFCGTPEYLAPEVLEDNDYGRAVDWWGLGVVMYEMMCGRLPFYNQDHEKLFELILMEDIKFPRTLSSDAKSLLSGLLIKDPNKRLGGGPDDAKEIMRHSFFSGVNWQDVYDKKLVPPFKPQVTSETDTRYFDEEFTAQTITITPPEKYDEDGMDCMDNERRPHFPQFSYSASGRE
- protocolDetails: Akt3 inhibition assay (IMAP FP);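 also: kinase reaction run 60 min at room temperature after 30 µM ATP start, phosphorylated substrate captured on IMAP beads and read as fluorescence polarization (mP)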
- Format: biochemical
- recordedConditions: average Ki; read-out: Akt3 Ki
The quantity pKi is defined as the negative base-10 logarithm of the molar concentration.

compoundStructure: OCCn1ccc2ccc(CN3CC[C@@H](Nc4cccc5cnccc45)C3)cc21
pKi: 6.48

compoundStructure: c1cc2cc(CN3CCC[C@@H](Nc4ccc5[nH]ncc5c4)C3)ccc2o1
pKi: 6.55

compoundStructure: Cc1ccc(CN2CCC[C@H](Nc3ccc4[nH]ncc4c3)C2)c(C)c1
pKi: 5.25

compoundStructure: OCCn1ccc2ccc(CN3CCC[C@@H](Nc4ccc5[nH]ncc5c4)C3)cc21
pKi: 6.69

pKi for "C#Cc1ccc(CN2CCC[C@H](Nc3ccc4[nH]ncc4c3)C2)cc1" ?
5.28

State the recorded pKi for this entry: "CCS(=O)(=O)Nc1cc(CN2CCC[C@H](Nc3ccc4[nH]ncc4c3)C2)ccc1C"
5.59

Entry under review: "OCCn1ccc2cc(CN3CC[C@@H](Nc4cccc5cnccc45)C3)ccc21" . Reported pKi?
5.60

Which pKi is reported for this compound? "c1cc2cc(CN3CCC[C@H](Nc4ccc5[nH]ncc5c4)C3)ccc2o1"
5.50

What does the data say about its pKi? Entry: "Brc1ccc(CN2CCC[C@@H](Nc3ccc4[nH]ncc4c3)C2)cc1"
6.82

What measured pKi goes with "C#Cc1ccc(CN2CC[C@@H](Nc3cccc4cnccc34)C2)cc1" ?
5.87

Could you share which pKi value was measured for "OCCOc1cccc(CN2CC[C@@H](Nc3cccc4cnccc34)C2)c1" ?
5.70
